Source listed as ChEMBL document CHEMBL1201862.

- System: EKVX
- assay: NCI tumour cell line growth inhibition, 48 h
Activity calls are given as the source filed them. Cut-off read from the data, not from the text of the source: active = GI50 up to about 1.1 µM and inactive = higher.
reported-metric: GI50

These solved cases illustrate the format of a correct answer.
>  <molecule>
O=C(Nc1ccc2[nH]c(C(=O)N3CC(CCl)c4c3cc([N+](=O)[O-])c3ccccc43)cc2c1)Nc1ccc2[nH]c(C(=O)N3CC(CCl)c4c3cc([N+](=O)[O-])c3ccccc43)cc2c1 (stereo not given)

>  <assay-value>
> 100 µM (inactive)

$$$$
>  <molecule>
CCOC(=O)C1(C(=O)OCC)CC(=O)[C@@]2(C1)OCC[C@H]1OC(=O)C[C@H]12

>  <assay-value>
> 100 µM (inactive)

$$$$
>  <molecule>
CC(C)(C)OC(=O)n1c2ccccc2c2c(=O)nc(N3CCCCC3)sc21

>  <assay-value>
> 100 µM (inactive)

$$$$
>  <molecule>
CSc1ncc2c(C#N)c3sc4ccccc4n3c(=O)c2n1

>  <assay-value>
> 100 µM (inactive)

$$$$
>  <molecule>
CN(C)c1ccc(/C=C2\N=C(c3ccccc3)N(c3nc4c(Cl)cc(Cl)cc4s3)C2=O)cc1

>  <assay-value>
21.8 µM (inactive)

$$$$

What does the data say about its GI50? Entry: Cc1c2n(c3ccccc13)CC1C2N(C)OC1(C)C (stereo not given)
> 100 µM (inactive)

What does the data say about its GI50? Entry: CCOC(=O)c1ccc(NCC#CCN2CCCCC2)cc1
> 100 µM (inactive)

What does the data say about its GI50? Entry: N#Cc1nnc2ccccc2c1N
> 100 µM (inactive)

What does the data say about its GI50? Entry: CCC(C)[C@H](NC(=O)N[C@H](C)c1ccccc1)C(=O)OC (stereo not given in full)
> 100 µM (inactive)

What does the data say about its GI50? Entry: O=C1CCCC2=C1CC1=C(CCCC1=O)N2c1cccc([N+](=O)[O-])c1
> 100 µM (inactive)

What does the data say about its GI50? Entry: CC(C)=CCC/C(C)=C/CC/C(C)=C/CSc1ccc(Cl)cc1C(=O)O
18.6 µM (inactive)

What does the data say about its GI50? Entry: C[C@H]1/C(=C/C(=O)OCCN(C)C)CC[C@H]2[C@H]1C(=O)C[C@H]1C(C)(C)[C@@H](O)CC[C@]21C
> 100 µM (inactive)

What does the data say about its GI50? Entry: COC(=O)/C(=N\NC(=S)NN)C(C(=O)C(=O)Nc1ccccc1C(N)=O)c1nc2ccccc2nc1O (stereo not given)
> 100 µM (inactive)

What does the data say about its GI50? Entry: COc1ccccc1OC(=O)/C=C/c1ccccc1
> 100 µM (inactive)

What does the data say about its GI50? Entry: C=C1C(=O)[C@@]23CC[C@@H]4[C@@]5(C)CCC[C@@]4(OC5=O)[C@@]2(C)CC[C@@H]1C3
3.15 µM (inactive)

What does the data say about its GI50? Entry: C/C(Nc1ccc(F)cc1)=C1/CCOC1=O
> 100 µM (inactive)
